Origin of measurements: patent US9359371B2

Molecular target: PDE-5 enzyme (human blood platelets) (Homo sapiens (Human), UniProt O76074)
Assay: PDE-5 enzyme assay, [3H]cGMP
Format: biochemical
Settings: Table 2; human blood platelet enzyme; read-out: IC50 on PDE-5
Some compounds, each annotated with its measured IC50.
Dear colleague, please return just the value in nM, with no unit written.

Known IC50 results, listed for orientation:
Query: Param item = COc1ccc(CNc2nc(N3CC4CC4C3)ncc2C(=O)N[C@H]2CC[C@H](O)CC2)cc1Cl (stereo partly drawn) ; retrieve measured IC50.
Reply: 1.31

Query: Entry to check: COc1ccc(CNc2nc(N3CC4CC4C3)ncc2C(=O)NCc2ccccc2)cc1Cl (stereo not drawn)
Reply: 0.91

Next:
Query: Param item = COc1ccc(CNc2nc(N3CC4CC4C3)ncc2C(=O)N[C@H]2CC[C@H](O)CC2)cc1F (stereo partly drawn) ; retrieve measured IC50.
Reply: 7.99

---

Assay: Pharmacokinetics (PK) in SD rats
Assay type: in vivo
Conditions: SD, plasma, po; rat, intragastric administration, 2 mg/kg
reported property: Tmax (min)
Dear colleague, please return just the value in min, with no unit written.

Known Tmax results, listed for orientation:
Query: Param item = COc1ccc(CN=c2[nH]c(N3CCC[C@H]3CO)ncc2C(=O)NCc2ncccn2)cc1Cl [Avanafil, reference compound] ; retrieve measured Tmax.
Reply: 19.8

Query: Entry to check: COc1ccc(CNc2nc(N3CCC4(CC4)C3)ncc2C(=O)NCc2ncccn2)cc1Cl [Compound 41]
Reply: 30

Query: Entry to check: COc1ccc(CNc2nc(N3CCC4(CC4)C3)ncc2C(=O)NCc2ccccn2)cc1Cl [Compound 40]
Reply: 30

Query: Entry to check: COc1ccc(CNc2nc(N3CC4CC4C3)ncc2C(=O)NCc2ccccn2)cc1Cl (centres unmarked) [Compound 2]
Reply: 60

Next:
Query: Param item = COc1ccc(CNc2nc(N3CC4CC4C3CO)ncc2C(=O)NCc2ccccc2)cc1Cl (centres unmarked) [Compound 32] ; retrieve measured Tmax.
Reply: 30

---

Some compounds, each annotated with its measured half-life.
Experiment: Pharmacokinetics (PK) in SD rats
Assay type: in vivo
Conditions: SD, plasma, po; rat, intragastric administration, 1 mg/kg
Procedure: Experiment 9: Assay of Pharmacokinetics (PK) of the Compounds of the Present Invention in SD Rats Compound 1-54 of the present invention were prepared by the methods described in Example 1 to Example 54 of the present invention. […] The result output by Analyst 1.5.1 of AB Company was used as the concentration of the tested sample (plasma sample). […] Parameters of PK were calculated by Pharsight Phoenix 6.2 software. […]
Dear colleague, please return just the value in h, with no unit written.

Query: Param item = COc1ccc(CNc2nc(N3CC4CC4C3)ncc2C(=O)N[C@H]2CC[C@H](O)CC2)cc1Cl (stereo partly shown) ; retrieve measured half-life.
Reply: 2.03

Query: Entry to check: COc1ccc(CNc2nc(N3CCC[C@H]3CO)ncc2C(=O)N[C@H]2CC[C@H](O)CC2)cc1Cl [WO-88, reference compound]
Reply: 2.8

Query: Entry to check: COc1ccc(CNc2nc(N3Cc4cccnc4C3)ncc2C(=O)N[C@H]2CC[C@H](O)CC2)cc1Cl [WO-93, reference compound]
Reply: 2.8

Turning now to a further record.
Query: Param item = COc1ccc(CNc2nc(N3CCC4(CCC4)CC3)ncc2C(=O)NCc2ncccn2)cc1Cl ; retrieve measured half-life.
Reply: 2.85
